# credit: patent US11840686B2

- Tested on: human PKK mRNA
- Assay comment: Dose-dependent antisense inhibition of human PKK in HepaRG cells, 0.19-5.00 uM (Example 5)
- Type: cell-based
- Conditions: 0.56 μM, HepaRG cells, electroporation, approximately 16 hours; Table 37
Strand notation (5' to 3'): a small letter for the sugar, then the base; units joined by * are phosphorothioate-linked, units joined directly phosphodiester-linked; [ ] holds rarer units or linkages, { } end groups; capitals alone tell only the bases. e = 2'-O-(2-methoxyethyl) (MOE); [5mC] = 5-methylcytosine; d = 2'-deoxy (DNA)
Measurement type: percent inhibition of PKK at 0.56 μM (%)
Express the result in % but write the number alone.

QUERY: Which percent inhibition of PKK at 0.56 μM is listed for 547618 (antisense eA*e[5mC]*eT*eG*eT*d[5mC]*d[5mC]*dT*dA*dT*dA*dT*d[5mC]*dA*d[5mC]*eT*eG*eT*eA*e[5mC]) [compound 547618] ?
RESULT: 0

---
QUERY: What value of measured percent inhibition of PKK at 0.56 μM is listed for 547622 (antisense eG*eT*e[5mC]*eA*e[5mC]*dT*dG*dT*dA*d[5mC]*d[5mC]*dT*dA*dT*dA*eA*e[5mC]*eT*e[5mC]*eT) [compound 547622] ?
RESULT: 47

QUERY: Report percent inhibition of PKK at 0.56 μM for 547731 (eG*eG*eA*eT*eT*dG*dG*dT*dG*dG*dT*dG*dG*dG*dA*eT*eT*eG*eG*eT; antisense) [compound 547731] please.
RESULT: 0

QUERY: Sample 546304 (antisense e[5mC]*eT*eT*eT*eT*dA*dT*dT*dT*dG*dT*dG*dA*dG*dA*eA*eA*eG*eG*eT) [compound 546304] — what was its percent inhibition of PKK at 0.56 μM?
RESULT: 6

QUERY: Which measured percent inhibition of PKK at 0.56 μM value corresponds to 531231 (eT*eA*eT*e[5mC]*eA*d[5mC]*dT*dG*dT*dA*d[5mC]*dT*dA*dG*dT*eT*eT*e[5mC]*e[5mC]*eT) [compound 531231] ?
RESULT: 47

====

Each record here notes measured percent inhibition of PKK at 1.67 μM.
- Test system: human PKK mRNA
- Assay comment: Dose-dependent antisense inhibition of human PKK in HepaRG cells, 0.19-5.00 uM (Example 5)
- Type: cell-based
- Conditions: 1.67 μM, HepaRG cells, electroporation, approximately 16 hours; Table 37
Strand notation (5' to 3'): a small letter for the sugar, then the base; units joined by * are phosphorothioate-linked, units joined directly phosphodiester-linked; [ ] holds rarer units or linkages, { } end groups; capitals alone tell only the bases. e = 2'-O-(2-methoxyethyl) (MOE); [5mC] = 5-methylcytosine; d = 2'-deoxy (DNA)
Numbers only here, please. The scale is %.

Study these solved cases before continuing.
QUERY: So what's the measured percent inhibition of PKK at 1.67 μM for this one? 546304 (antisense e[5mC]*eT*eT*eT*eT*dA*dT*dT*dT*dG*dT*dG*dA*dG*dA*eA*eA*eG*eG*eT) [compound 546304]
RESULT: 51

QUERY: Could you tell me which percent inhibition of PKK at 1.67 μM is on file for 547622 (antisense eG*eT*e[5mC]*eA*e[5mC]*dT*dG*dT*dA*d[5mC]*d[5mC]*dT*dA*dT*dA*eA*e[5mC]*eT*e[5mC]*eT) [compound 547622] ?
RESULT: 79

QUERY: Fill in the blank: the reported percent inhibition of PKK at 1.67 μM of 531231 (eT*eA*eT*e[5mC]*eA*d[5mC]*dT*dG*dT*dA*d[5mC]*dT*dA*dG*dT*eT*eT*e[5mC]*e[5mC]*eT) [compound 531231] is ____.
RESULT: 72

QUERY: Returns the measured percent inhibition of PKK at 1.67 μM for the input substance. Input: 547618 (antisense eA*e[5mC]*eT*eG*eT*d[5mC]*d[5mC]*dT*dA*dT*dA*dT*d[5mC]*dA*d[5mC]*eT*eG*eT*eA*e[5mC]) [compound 547618]
RESULT: 73

Next:
QUERY: Please give the measured percent inhibition of PKK at 1.67 μM for this substance: 547731 (eG*eG*eA*eT*eT*dG*dG*dT*dG*dG*dT*dG*dG*dG*dA*eT*eT*eG*eG*eT; antisense) [compound 547731]
RESULT: 17
